- protocol details: Ratio of Ki for human recombinant PKCalpha to RasGRP3
Mark each entry class 1 if its Ratio Ki sits below 20, and class 0 for all others.

[[record]]
compound = "CN(C)c1ccc(C(=O)OCC2(CO)C/C(=C\\c3cnc4ccccc4c3)C(=O)O2)cc1 (stereo not given)"
label_class = "class 1"

[[record]]
compound = "CCCC(CCC)C(=O)OCC1(CO)C/C(=C\\c2ccc3ccccc3n2)C(=O)O1 (stereo not given)"
label_class = "class 0"

[[record]]
compound = "CN(C)c1ccc(C(=O)OCC2(CO)C/C(=C\\c3cccnc3)C(=O)O2)cc1 (stereo not given)"
label_class = "class 1"

[[record]]
compound = "COc1ccc(C(=O)OCC2(CO)C/C(=C\\c3cccnc3)C(=O)O2)cc1 (stereo not given)"
label_class = "class 1"

[[record]]
compound = "CCCC(CCC)C(=O)OCC1(CO)C/C(=C/c2ccccn2)C(=O)O1 (stereo not given)"
label_class = "class 1"

[[record]]
compound = "CN(C)c1ccc(C(=O)OCC2(CO)C/C(=C/c3ccc4ccccc4n3)C(=O)O2)cc1 (stereo not given)"
label_class = "class 1"

[[record]]
compound = "CN(C)c1ccc(C(=O)OCC2(CO)C/C(=C\\c3cn(C)c4ccccc34)C(=O)O2)cc1 (stereo not given)"
label_class = "class 0"

[[record]]
compound = "COc1ccc(C(=O)OCC2(CO)C/C(=C/c3cnc4ccccc4c3)C(=O)O2)cc1 (stereo not given)"
label_class = "class 1"

[[record]]
compound = "CN(C)c1ccc(C(=O)OCC2(CO)C/C(=C\\c3ccncc3)C(=O)O2)cc1 (stereo not given)"
label_class = "class 1"

[[record]]
compound = "CCCC(CCC)C(=O)OCC1(CO)C/C(=C\\c2cn(C)c3ccccc23)C(=O)O1 (stereo not given)"
label_class = "class 0"

[[record]]
compound = "CCCC(CCC)C(=O)OCC1(CO)C/C(=C/c2cnc3ccccc3c2)C(=O)O1 (stereo not given)"
label_class = "class 1"

[[record]]
compound = "COc1ccc(C(=O)OCC2(CO)C/C(=C/c3ccc4ccccc4n3)C(=O)O2)cc1 (stereo not given)"
label_class = "class 1"

[[record]]
compound = "CN(C)c1ccc(C(=O)OCC2(CO)C/C(=C\\c3ccc([N+](=O)[O-])cc3)C(=O)O2)cc1 (stereo not given)"
label_class = "class 0"

[[record]]
compound = "CCCC(CCC)C(=O)OCC1(CO)C/C(=C/c2ccc3ccccc3n2)C(=O)O1 (stereo not given)"
label_class = "class 1"

[[record]]
compound = "CN(C)c1ccc(C(=O)OCC2(CO)C/C(=C\\c3ccc4ccccc4n3)C(=O)O2)cc1 (stereo not given)"
label_class = "class 1"

[[record]]
compound = "CN(C)c1ccc(C(=O)OCC2(CO)C/C(=C\\c3ccccn3)C(=O)O2)cc1 (stereo not given)"
label_class = "class 0"

[[record]]
compound = "COc1ccc(C(=O)OCC2(CO)C/C(=C/c3cccnc3)C(=O)O2)cc1 (stereo not given)"
label_class = "class 1"

[[record]]
compound = "COc1ccc(C(=O)OCC2(CO)C/C(=C\\c3ccccn3)C(=O)O2)cc1 (stereo not given)"
label_class = "class 0"

[[record]]
compound = "COc1ccc(C(=O)OCC2(CO)C/C(=C\\c3ccc4ccccc4n3)C(=O)O2)cc1 (stereo not given)"
label_class = "class 1"

